# SYSTEM TESTED: T1, human C4a (human, UniProt P0C0L4 680-756)
# T1 construct: domain: C4a
# T1 sequence (looked up): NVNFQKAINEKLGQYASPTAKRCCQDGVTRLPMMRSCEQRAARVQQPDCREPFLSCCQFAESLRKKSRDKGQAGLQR
# EXPERIMENTAL PROTOCOL: Octet analysis
RECORDED METRIC: binding result

>>> val("BNJ347 (antibody, V domains shown, also called BNJ347 humanized anti-C5a antibody) VH: QVQLVQSGAEVKKPGASVKVSCKASGYTFTDYSMDWVRQASGKGLEWMGAIHLNTGYTNYNQKFKGRVTITADESTSTAYMELSSLRSEDTAVYYCARGFYDGYSPMDYWGQGTTVTVSS VL: DIVMTQSPDSLAVSLGERATINCRASESVDSYGNSFMHWYQQKPGQPPKLLIYRASNLESGVPDRFSGSGSGTDFTLTISSLQAEDVAVYYCQQSNEDPYTFGGGTKVEIKR")
"no binding"
>>> val("BNJ346 (antibody, V domains shown, also called BNJ346 humanized anti-C5a antibody) VH: QVQLVQSGAEVKKPGASVKVSCKASGYTFTDYSMDWVRQAPGQGLEWVGAIHLNTGYTNYNQKFKGRVTITADESTSTAYMELSSLRSEDTAVYYCARGFYDGYSPMDYWGQGTTVTVSS VL: DIVMTQSPDSLAVSLGERATINCRASESVDSYGNSFMHWYQQKPGQPPKLLIYRASNLESGVPDRFSGSGSGTDFTLTISSLQAEDVAVYYCQQSNEDPYTFGGGTKVEIKR")
"no binding"
>>> val("BNJ354 (antibody, V domains shown, also called BNJ354 humanized anti-C5a antibody) VH: QVQLVQSGAEVKKPGASVKVSCKASGYTFTDYSMDWVRQASGKGLEWMGAIHLNTGYTNYNQKFKGRVTMTRDTSTSTVYMELSSLRSEDTAVYYCARGFYDGYSPMDYWGQGTTVTVSS VL: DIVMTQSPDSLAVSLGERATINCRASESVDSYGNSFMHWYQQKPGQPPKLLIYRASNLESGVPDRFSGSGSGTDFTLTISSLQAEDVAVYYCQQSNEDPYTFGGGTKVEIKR")
"no binding"
